test system: HeLa Kyoto; test: thermal stability score vs G1/S (z-score of summed log2 fold changes over temperatures); higher = more thermally stable than in G1/S; details: cell cycle stage: early G1 (4.5 h after nocodazole release)
Quick rule for you: thermal stability score at -0.3 or higher means 1, lower means -1.

MTERFDCHHCNESLFGKKYILREESPYCVVCFETLFANTCEECGKPIGCDCKDLSYKDRHWHEACFHCSQCRNSLVDKPFAAKEDQLLCTDCYSNEYSSKCQECKKTIMPGTRKMEYKGSSWHETCFICHRCQQPIGTKSFIPKDNQNFCVPCYEKQHAMQCVQCKKPITTGGVTYREQPWHKECFVCTACRKQLSGQRFTARDDFAYCLNCFCDLYAKKCAGCTNPISGLGGTKYISFEERQWHNDCFNCKKCSLSLVGRGFLTERDDILCPDCGKDI [FHL2]; -1
MALCEAAGCGSALLWPRLLLFGDSITQFSFQQGGWGASLADRLVRKCDVLNRGFSGYNTRWAKIILPRLIRKGNSLDIPVAVTIFFGANDSALKDENPKQHIPLEEYAANLKSMVQYLKSVDIPENRVILITPTPLCETAWEEQCIIQGCKLNRLNSVVGEYANACLQVAQDCGTDVLDLWTLMQDSQDFSSYLSDGLHLSPKGNEFLFSHLWPLIEKKVSSLPLLLPYWRDVAEAKPELSLLGDGDH [IAH1]; 1
MDDTLFQLKFTAKQLEKLAKKAEKDSKAEQAKVKKALLQKNVECARVYAENAIRKKNEGVNWLRMASRVDAVASKVQTAVTMKGVTKNMAQVTKALDKALSTMDLQKVSSVMDRFEQQVQNLDVHTSVMEDSMSSATTLTTPQEQVDSLIMQIAEENGLEVLDQLSQLPEGASAVGESSVRSQEDQLSRRLAALRN [CHMP1A]; -1
MDPFLVLLHSVSSSLSSSELTELKFLCLGRVGKRKLERVQSGLDLFSMLLEQNDLEPGHTELLRELLASLRRHDLLRRVDDFEAGAAAGAAPGEEDLCAAFNVICDNVGKDWRRLARQLKVSDTKIDSIEDRYPRNLTERVRESLRIWKNTEKENATVAHLVGALRSCQMNLVADLVQEVQQARDLQNRSGAMSPMSWNSDASTSEAS [FADD]; 1
MSSARFDSSDRSAWYMGPVSRQEAQTRLQGQRHGMFLVRDSSTCPGDYVLSVSENSRVSHYIINSLPNRRFKIGDQEFDHLPALLEFYKIHYLDTTTLIEPAPRYPSPPMGSVSAPNLPTAEDNLEYVRTLYDFPGNDAEDLPFKKGEILVIIEKPEEQWWSARNKDGRVGMIPVPYVEKLVRSSPHGKHGNRNSNSYGIPEPAHAYAQPQTTTPLPAVSGSPGAAITPLPSTQNGPVFAKAIQKRVPCAYDKTALALEVGDIVKVTRMNINGQWEGEVNGRKGLFPFTHVKIFDPQNPDENE [CRKL]; -1

Okay, now this sequence:
query: Hi, just wondering whether MESQKEARTLQEPVARPSGASSSQTPNDKERREGGAVPAAAALGAEADDDSADGLWELPVEPAERRPECTRCSRPQKVCLCPFLPAHPLHISTHLYIIQHPAEENKVLRTVPLLAACLPQDKCKVKIGRRFSEERDPELSTVCRKSGTLILYPGAEAANLEEFILDSPVYPSTIIIIDGTWSQAKDIFYKNSLFRHPKQVQLKTSISSQYVIRMQPTNRCLSTLECAAVALSILEKNNYIQETLLRPLQALCSFQLQHGAQIRLSKEHLLKNGLYPKPMPKNKRKLRKMELLMNSVKI [DTWD2] shows thermal stability score of -0.3 or higher.
result: 1

====

test system: HeLa Kyoto; assay: solubility in G1/S (NP-40 vs SDS abundance) (log2 ratio); higher = more soluble; details: cell cycle stage: G1/S
Catalogue of solubility in G1/S (log2) readings, one per entry.

MRRAWILLTLGLVACVSAESRAELTSDKDMYLDNSSIEEASGVYPIDDDDYASASGSGADEDVESPELTTSRPLPKILLTSAAPKVETTTLNIQNKIPAQTKSPEETDKEKVHLSDSERKMDPAEEDTNVYTEKHSDSLFKRTEVLAAVIAGGVIGFLFAIFLILLLVYRMRKKDEGSYDLGERKPSSAAYQKAPTKEFYA [SDC2]; -0.422

Now consider the entry below.
query: Fetch value of solubility in G1/S (log2) on HeLa Kyoto for MDKLKKVLSGQDTEDRSGLSEVVEASSLSWSTRIKGFIACFAIGILCSLLGTVLLWVPRKGLHLFAVFYTFGNIASIGSTIFLMGPVKQLKRMFEPTRLIATIMVLLCFALTLCSAFWWHNKGLALIFCILQSLALTWYSLSFIPFARDAVKKCFAVCLA [SFT2D2] .
result: 0.0285

====

system: HeLa Kyoto; experiment: thermal stability score vs G1/S (z-score of summed log2 fold changes over temperatures); higher = more thermally stable than in G1/S; conditions: cell cycle stage: mitosis
property-label: thermal stability score
In your answer, state the number alone without any accompanying words.

# count of solved cases: 2
MADAAPQLGKRKRELDVEEAHAASTEEKEAGVGNGTCAPVRLPFSGFRLQKVLRESARDKIIFLHGKVNEASGDGDGEDAVVILEKTPFQVEQVAQLLTGSPELQLQFSNDIYSTYHLFPPRQLNDVKTTVVYPATEKHLQKYLRQDLRLIRETGDDYRNITLPHLESQSLSIQWVYNILDKKAEADRIVFENPDPSDGFVLIPDLKWNQQQLDDLYLIAICHRRGIRSLRDLTPEHLPLLRNILHQGQEAILQRYRMKGDHLRVYLHYLPSYYHLHVHFTALGFEAPGSGVERAHLLAEVIENLECDPRHYQQRTLTFALRADDPLLKLLQEAQQS [DCPS]; -3.36
MTHSLVCPETVSRVSSVLNRNTRQFGKKHLFDQDEETCWNSDQGPSQWVTLEFPQLIRVSQLQIQFQGGFSSRRGCLEGSQGTQALHKIVDFYPEDNNSLQTFPIPAAEVDRLKVTFEDATDFFGRVVIYHLRVLGEKV [NR2C2AP]; -0.215

Now consider the entry below.
query: Report thermal stability score, nothing else, for this sequence: MAAPAVSGLSRQVRCFSTSVVRPFAKLVRPPVQVYGIEGRYATALYSAASKQNKLEQVEKELLRVAQILKEPKVAASVLNPYVKRSIKVKSLNDITAKERFSPLTTNLINLLAENGRLSNTQGVVSAFSTMMSVHRGEVPCTVTSASPLEEATLSELKTVLKSFLSQGQVLKLEAKTDPSILGGMIVRIGEKYVDMSVKTKIQKLGRAMREIV [ATP5O]
result: -2.27

====

test system: HeLa Kyoto; test: solubility change mitosis vs G1/S (difference of NP-40 vs SDS log2 ratios) (log2 ratio difference); higher = more soluble in mitosis
Catalogue of solubility change mitosis (log2) readings, one per entry.
In your answer, state the number alone without any accompanying words.

query: Report solubility change mitosis (log2), nothing else, for this sequence: MGKVLSKIFGNKEMRILMLGLDAAGKTTILYKLKLGQSVTTIPTVGFNVETVTYKNVKFNVWDVGGQDKIRPLWRHYYTGTQGLIFVVDCADRDRIDEARQELHRIINDREMRDAIILIFANKQDLPDAMKPHEIQEKLGLTRIRDRNWYVQPSCATSGDGLYEGLTWLTSNYKS [ARF6]
result: 0.0647

query: Report solubility change mitosis (log2), nothing else, for this sequence: MAAGTAAALAFLSQESRTRAGGVGGLRVPAPVTMDSFFFGCELSGHTRSFTFKVEEEDDAEHVLALTMLCLTEGAKDECNVVEVVARNHDHQEIAVPVANLKLSCQPMLSLDDFQLQPPVTFRLKSGSGPVRITGRHQIVTMSNDVSEEESEEEEEDSDEEEVELCPILPAKKQGGRP [NPM3]
result: 0.0933

query: Report solubility change mitosis (log2), nothing else, for this sequence: MGEIKVSPDYNWFRGTVPLKKIIVDDDDSKIWSLYDAGPRSIRCPLIFLPPVSGTADVFFRQILALTGWGYRVIALQYPVYWDHLEFCDGFRKLLDHLQLDKVHLFGASLGGFLAQKFAEYTHKSPRVHSLILCNSFSDTSIFNQTWTANSFWLMPAFMLKKIVLGNFSSGPVDPMMADAIDFMVDRLESLGQSELASRLTLNCQNSYVEPHKIRDIPVTIMDVFDQSALSTEAKEEMYKLYPNARRAHLKTGGNFPYLCRSAEVNLYVQIHLLQFHGTKYAAIDPSMVSAEELEVQKGSLGISQEEQ [SPG21]
result: -0.157

====

system: HeLa Kyoto; experiment: thermal stability score vs G1/S (z-score of summed log2 fold changes over temperatures); higher = more thermally stable than in G1/S; details: cell cycle stage: early G1 (4.5 h after nocodazole release)
property-label: thermal stability score
In your answer, state the number alone without any accompanying words.

MVKLFIGNLPREATEQEIRSLFEQYGKVLECDIIKNYGFVHIEDKTAAEDAIRNLHHYKLHGVNINVEASKNKSKTSTKLHVGNISPTCTNKELRAKFEEYGPVIECDIVKDYAFVHMERAEDAVEAIRGLDNTEFQGKRMHVQLSTSRLRTAPGMGDQSGCYRCGKEGHWSKECPIDRSGRVADLTEQYNEQYGAVRTPYTMSYGDSLYYNNAYGALDAYYKRCRAARSYEAVAAAAASVYNYAEQTLSQLPQVQNTAMASHLTSTSLDPYDRHLLPTSGAAATAAAAAAAAAAVTAASTSYYGRDRSPLRRATAPVPTVGEGYGYGHESELSQASAAARNSLYDMARYEREQYADRARYSAF [RBM4]; -0.245

query: Report thermal stability score, nothing else, for this sequence: MAEKFDCHYCRDPLQGKKYVQKDGHHCCLKCFDKFCANTCVECRKPIGADSKEVHYKNRFWHDTCFRCAKCLHPLANETFVAKDNKILCNKCTTREDSPKCKGCFKAIVAGDQNVEYKGTVWHKDCFTCSNCKQVIGTGSFFPKGEDFYCVTCHETKFAKHCVKCNKAITSGGITYQDQPWHADCFVCVTCSKKLAGQRFTAVEDQYYCVDCYKNFVAKKCAGCKNPITGKRTVSRVSHPVSKARKPPVCHGKRLPLTLFPSANLRGRHPGGERTCPSWVVVLYRKNRSLAAPRGPGLVKAPVWWPMKDNPGTTTASTAKNAP [FHL1]
result: 0.0455
